Values from ChEMBL document CHEMBL3352152

Test system: HepG2
Assay: Anticancer activity against human HepG2 cells assessed as cell viability after 48 hrs by MTT microcultured tetrazolium assay
Assay type: functional, cell-based
Settings: HepG2, 48 h
readout kind: IC50 (µM)

INSERT INTO measurements (compound, value_modifier, result) VALUES
  ('COc1ccc2c(c1)CCC1=C2N=c2s/c(=C\c3c[nH]c4ccc(C)cc34)c(=O)n2C1c1cccc([N+](=O)[O-])c1 (stereo not drawn)', '=', 51.6),
  ('COc1ccc2c(c1)CCC1=C2N=c2s/c(=C\c3c[nH]c4ccc(Br)cc34)c(=O)n2C1c1cccc([N+](=O)[O-])c1 (stereo not drawn)', '>', 200),
  ('COc1ccc(C2C3=C(N=c4s/c(=C\c5c[nH]c6ccc(OC)cc56)c(=O)n42)c2ccc(OC)cc2CC3)cc1 (stereo not drawn)', '=', 57.5);
